- TARGET SYSTEM: T1, human MSLN-FL-his protein (human, UniProt Q13421 296-580)
- T1 construct: made in HEK293E cells, purified on nickel column; also called hMSLN-FL-his; human MSLN full-length protein; not shown: His tag
- T1 sequence (Q13421 other isoform, or with tags, fused parts or gaps): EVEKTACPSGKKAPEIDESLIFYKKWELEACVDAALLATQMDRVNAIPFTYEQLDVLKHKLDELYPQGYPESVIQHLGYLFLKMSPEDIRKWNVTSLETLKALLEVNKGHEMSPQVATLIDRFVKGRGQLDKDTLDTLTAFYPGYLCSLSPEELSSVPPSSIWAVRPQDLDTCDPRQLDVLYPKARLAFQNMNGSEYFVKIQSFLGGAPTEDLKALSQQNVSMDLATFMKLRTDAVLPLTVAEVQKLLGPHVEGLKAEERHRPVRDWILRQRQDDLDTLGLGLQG
- MEASUREMENT PROTOCOL: competitive ELISA; row F8-29.1; further: test concentration or dose not given here
EXPERIMENTAL READOUT: competition rate (%)
State just the number; it will be interpreted in %.

S009-F8-29.1 (antibody, human IgG1, kappa, V domains shown, human-murine chimeric antibody, human IgG1/kappa constant regions) VH: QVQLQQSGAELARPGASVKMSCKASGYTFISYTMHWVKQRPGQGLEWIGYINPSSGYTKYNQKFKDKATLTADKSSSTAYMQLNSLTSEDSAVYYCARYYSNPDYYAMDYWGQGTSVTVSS VL: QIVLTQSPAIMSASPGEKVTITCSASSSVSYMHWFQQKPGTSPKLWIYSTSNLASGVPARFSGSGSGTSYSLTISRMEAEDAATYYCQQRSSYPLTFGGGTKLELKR	62.2
S009-F8-22.23 (antibody, human IgG1, kappa, V domains shown, human-murine chimeric antibody, human IgG1/kappa constant regions) VH: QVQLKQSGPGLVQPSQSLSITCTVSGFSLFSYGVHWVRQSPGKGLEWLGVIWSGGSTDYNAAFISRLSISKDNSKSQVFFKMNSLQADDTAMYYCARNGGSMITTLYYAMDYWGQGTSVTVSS VL: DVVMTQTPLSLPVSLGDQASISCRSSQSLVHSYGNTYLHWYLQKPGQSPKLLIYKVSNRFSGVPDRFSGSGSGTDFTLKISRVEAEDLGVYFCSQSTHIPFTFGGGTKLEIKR	70
S009-F8-36.12 (antibody, human IgG1, kappa, V domains shown, human-murine chimeric antibody, human IgG1/kappa constant regions) VH: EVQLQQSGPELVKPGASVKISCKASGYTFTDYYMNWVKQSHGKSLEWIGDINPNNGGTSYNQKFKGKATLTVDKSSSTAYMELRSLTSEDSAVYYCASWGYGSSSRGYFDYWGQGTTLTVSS VL: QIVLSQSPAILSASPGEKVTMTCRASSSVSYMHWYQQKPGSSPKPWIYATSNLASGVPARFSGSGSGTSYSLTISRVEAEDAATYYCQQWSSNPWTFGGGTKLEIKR	9.4
S009-F8-32.3 (antibody, human IgG1, kappa, V domains shown, human-murine chimeric antibody, human IgG1/kappa constant regions) VH: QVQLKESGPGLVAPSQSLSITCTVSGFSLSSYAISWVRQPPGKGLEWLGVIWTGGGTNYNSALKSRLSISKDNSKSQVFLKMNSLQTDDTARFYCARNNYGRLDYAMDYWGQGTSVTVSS VL: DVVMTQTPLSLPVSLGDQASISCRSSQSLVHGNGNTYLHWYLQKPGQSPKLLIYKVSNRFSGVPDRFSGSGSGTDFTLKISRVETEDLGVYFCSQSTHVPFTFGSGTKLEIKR	65.9

Shift focus to the following entry.
-- ask Entry S009-F8-24.14 (antibody, human IgG1, kappa, V domains shown, human-murine chimeric antibody, human IgG1/kappa constant regions) VH: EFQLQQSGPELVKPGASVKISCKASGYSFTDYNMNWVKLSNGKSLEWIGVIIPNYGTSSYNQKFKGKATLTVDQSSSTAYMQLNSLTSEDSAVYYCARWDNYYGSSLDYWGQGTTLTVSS VL: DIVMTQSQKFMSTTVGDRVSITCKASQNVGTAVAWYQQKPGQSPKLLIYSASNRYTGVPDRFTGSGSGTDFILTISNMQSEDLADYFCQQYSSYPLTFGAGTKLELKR has what competition rate?
-- reply 43.7
